// values below are reported SPOT intensity
measured.target: T1, Cyk3, Q07533
T1 sequence (Q07533 1-83, looked up): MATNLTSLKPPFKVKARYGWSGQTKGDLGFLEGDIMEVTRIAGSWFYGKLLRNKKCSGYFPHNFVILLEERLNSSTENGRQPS
procedure.text: SPOT array
test.settings: median of control spots 1451
Give the figure by itself; no unit, no explanation.

Solved entries (count: 10):
[
  {
    "binder": "NRPAIRIPSLKKPAL",
    "SPOT intensity": 0
  },
  {
    "binder": "GKKVRPLLVLLLSRA",
    "SPOT intensity": 0
  },
  {
    "binder": "YHSRRHPLALGFKYV",
    "SPOT intensity": 3
  },
  {
    "binder": "VRVKKRPLIRPLNSS",
    "SPOT intensity": 2
  },
  {
    "binder": "NLPKRKPPKLQGPFS",
    "SPOT intensity": 1
  },
  {
    "binder": "ANNQGPPNLPARDKS",
    "SPOT intensity": 0
  },
  {
    "binder": "YSRKKLPVVLSKMTL",
    "SPOT intensity": 1
  },
  {
    "binder": "LLGRKRPVMERVVDI",
    "SPOT intensity": 0
  },
  {
    "binder": "GRSRLFPHSPLGRSS",
    "SPOT intensity": 2
  },
  {
    "binder": "FIRKRAPTPPAPSRS",
    "SPOT intensity": 2
  }
]

Give recorded SPOT intensity. "LLRRTIPKRPFYHVL" 0

Give recorded SPOT intensity. "LYEAMPPTLPHRDWK" 0

Give recorded SPOT intensity. "YLTRPLPSTPNEDSR" 0

Give recorded SPOT intensity. "RRSKSLPTTPGIRSG" 0

Give recorded SPOT intensity. "LRWRHKFFLPAIAAI" 4
